System: Plasmodium falciparum
Experiment Notes: Screen against P. falciparum Asexual Blood Stage (ABS), at 5uM
Type: functional, Dd2
Measurement Setup: tested at 5 uM
Screen size: about 65,000 compounds; about 2,100 (3.2%) showed an effect of 50% or more. The median lay at about -52%. Many of the other results were omitted from the sample, so strong results are more common in it than they were.
// map INHIBITION to label using low-valued: < 20%; mid-valued: ≥ 20% and < 60%; high-valued: ≥ 60%

Consider CCc1c(-c2ccccc2)nc2c(c(C)c(C)n2CCN(C)C)c1N . To which INHIBITION class does it belong?
high-valued

Consider CCc1c(C)sc2c1c(N)nc(=O)n2CCN(C)C . To which INHIBITION class does it belong?
low-valued

Consider CCc1cc(NCCc2cccnc2)n2nc(C)c(C)c2n1 . To which INHIBITION class does it belong?
low-valued

Consider Cc1cc(C(=O)N2CCNC(=O)C2)c(C)n1Cc1ccccn1 . To which INHIBITION class does it belong?
low-valued

Consider CCCNC(c1ccc(F)cc1)c1cccnc1 (configuration not stated) . To which INHIBITION class does it belong?
mid-valued

Consider CCc1c(C)sc2c1c(N)nc(=O)n2CCCN(C)C . To which INHIBITION class does it belong?
low-valued

Consider CCCc1nc2c(c(C)c(C)n2Cc2cccnc2)c(N)c1CC . To which INHIBITION class does it belong?
high-valued

Consider CCNC(c1cccnc1)c1ccc(F)c(C)c1 (configuration not stated) . To which INHIBITION class does it belong?
mid-valued

Consider Cc1c(C)n(Cc2ccccn2)c2nc3c(c(N)c12)CCCC3 . To which INHIBITION class does it belong?
mid-valued

###

Tested on: Plasmodium falciparum
Experiment Notes: Screen against P. falciparum Asexual Blood Stage (ABS), at 5uM
Assay type: functional, Dd2
Measurement Setup: tested at 5 uM
Among all 65,000 compounds or so, about 2,100 (3.2%) showed an effect of 50% or more. The median lay at about -52%. The list comes from a sample in which strong results are over-represented; it also holds close analogues and randomly drawn compounds.
Can you tell me INHIBITION for the items I'm about to list?
Give the value, in units of %, as a plain number.

// field: INHIBITION; key: CC(C)Oc1cccc(CNC(Cc2ccsc2)c2nccs2)c1 (centres undefined) ; value = -29.2

// field: INHIBITION; key: COc1cccc(CN2CC(=O)N(c3ccccc3C)CC2C)c1OC (centres undefined) ; value = 53.8

// field: INHIBITION; key: Cc1nc(C2CCCN2C(=O)COc2ccccc2)ncc1C(N)=O (centres undefined) ; value = -61

// field: INHIBITION; key: COc1ccc(CCN(C)CCS(=O)(=O)c2ccc(Cl)cc2)cc1OC ; value = -7.75

// field: INHIBITION; key: O=C(C1CC1)N1CCc2ccccc2C12CCNCC2 ; value = -55.8

// field: INHIBITION; key: Cc1ccc(C(=O)NCc2cc(F)ccc2N2CCCN(C)CC2)o1 ; value = 34.9

// field: INHIBITION; key: O=C(CCCOc1cccc(F)c1)N1CCCC(n2cccn2)C1 (centres undefined) ; value = -31.5

// field: INHIBITION; key: CC(C)c1noc(CCC(=O)N2CCSCC2)n1 ; value = -159

// field: INHIBITION; key: CN1CCCN(c2ccc(F)cc2CNC(=O)c2cccnc2)CC1 ; value = -51.5

// field: INHIBITION; key: Cn1cnnc1CNC(=O)C1CCCN(Cc2cccc(F)c2)C1 (centres undefined) ; value = -141

// field: INHIBITION; key: COc1ccccc1N1CCC(CNCc2cccc(OC)c2OC)C1 (centres undefined) ; value = 57

// field: INHIBITION; key: CN(CC1CCCCC1)C(=O)c1ccc(-n2ncc(C#N)c2N)cc1 ; value = -48.5

// field: INHIBITION; key: Cn1ccnc1CCNC(=O)C1CCCN(Cc2cccc(F)c2)C1 (centres undefined) ; value = 59.3

// field: INHIBITION; key: CCN(C)C[C@@H]1CN(C(=O)c2cc(C(F)(F)F)n[nH]2)C[C@@H]1CO ; value = -5.31

// field: INHIBITION; key: CCN1CCCN(C(=O)c2ccc(NC(=O)CC(C)C)c(C)c2)CC1 ; value = -98.5

// field: INHIBITION; key: Cc1cccnc1C(Cc1ccsc1)NC(=O)Cn1cccnc1=O (centres undefined) ; value = 4.78

// field: INHIBITION; key: CCOC(=O)N1CCc2ccccc2C12CCNCC2 ; value = 54.6

// field: INHIBITION; key: Cn1cc(CNC(=O)C2CCCN(Cc3cccc(F)c3)C2)cn1 (centres undefined) ; value = -59.1

// field: INHIBITION; key: CC(CNC(=O)c1cccnc1)Oc1ccc(F)cc1 (centres undefined) ; value = -61.4

// field: INHIBITION; key: Cc1n[nH]cc1CNC1CCN(c2ccc(F)cc2)CC1 ; value = -38.1

// field: INHIBITION; key: CC(C)(C)n1cc(CNc2ccc(CNS(C)(=O)=O)cc2)cn1 ; value = -25.8

// field: INHIBITION; key: COc1ccc(F)c(CN2CC(=O)N(c3ccccc3C)CC2C)c1 (centres undefined) ; value = 9.59

// field: INHIBITION; key: COCC(=O)N1CCN(Cc2cccnc2)c2ncccc2C1 ; value = -53.1

// field: INHIBITION; key: COc1ccc(F)c(F)c1CN1CC(=O)N(c2ccccc2C)CC1C (centres undefined) ; value = 30.6

###

Test system: Plasmodium falciparum
Experiment Notes: Screen against P. falciparum Asexual Blood Stage (ABS), at 5uM
Assay type: functional, Dd2
Measurement Setup: tested at 5 uM
Among all 65,000 compounds or so, about 2,100 (3.2%) showed an effect of 50% or more. The median lay at about -52%. The entries come from a sample that favours strong results as a whole.
Measured Property: INHIBITION (%)
Give the value, in units of %, as a plain number.

// field: INHIBITION; key: COC(=O)c1ccc(NC(C)c2ccc3c(c2)NC(=O)CO3)nn1 (stereo not drawn) ; value = -143

// field: INHIBITION; key: Nc1ccc(-c2cc(O)cc(CCC3CCCCN3)c2)cn1 (stereo not drawn) ; value = -92.8

// field: INHIBITION; key: CN(C)c1nc(N2CCCC2)nc2c1CCN(Cc1nccn1C)CC2 ; value = 7.51

// field: INHIBITION; key: Cc1ccnc(NCc2cn3nc(C)sc3n2)n1 ; value = -114

// field: INHIBITION; key: COc1cccc(CC(=O)N2CCCC2c2nc(C)c(C)c(O)n2)c1 (stereo not drawn) ; value = -102

// field: INHIBITION; key: NC(=O)NCCC(=O)NCc1cccnc1N1CCc2ccccc2C1 ; value = -73

// field: INHIBITION; key: CC(c1nc(C2CC2)no1)N1CCc2c(ncn2C)C1 (stereo not drawn) ; value = -90.5

// field: INHIBITION; key: COc1ccccc1CCN1CCCC(CN(C)Cc2c[nH]c(C)n2)C1 (stereo not drawn) ; value = 67.4

// field: INHIBITION; key: O=C1Nc2ccccc2CN(CC2CC2)C12CCNC2 (stereo not drawn) ; value = -2.03

// field: INHIBITION; key: Cc1nn(C)c(C)c1C1CCCN1C(=O)c1ccc(N(C)C)nc1 (stereo not drawn) ; value = -54.2

// field: INHIBITION; key: COc1ccccc1CCN1CCCC(CN(C)Cc2cc(C)n[nH]2)C1 (stereo not drawn) ; value = 55.5

// field: INHIBITION; key: CC(C)n1nc(CN2CCOCC2)c2c1CN(C(=O)c1ccno1)C2 ; value = -44.4

// field: INHIBITION; key: Cc1nc(NC(C)C)nc2c1CN(Cc1nccn1C)CC2 ; value = -27.4

// field: INHIBITION; key: Cc1cccc(CN(Cc2ccccn2)Cc2ncc(C(C)(C)C)o2)c1 ; value = 60.4

// field: INHIBITION; key: O=C(NCCNc1cccnc1)C(c1cccnc1)N1CCCC1 (stereo not drawn) ; value = -11.7

// field: INHIBITION; key: COCCN(C)C[C@@H]1CN(C(=O)c2ccc(=O)n(C)c2)C[C@@H]1CO ; value = -237

// field: INHIBITION; key: NC(=O)C(c1ccc(F)cc1)N1CCN(CCO)CC1 (stereo not drawn) ; value = -133

// field: INHIBITION; key: Cc1cccc(C)c1NC(=O)c1cccc(CN2CCCC2C)c1 (stereo not drawn) ; value = 49.8

// field: INHIBITION; key: Cc1noc(C)c1CC(=O)N1CCCN(C)c2ccc(Cl)cc21 ; value = -70.5

// field: INHIBITION; key: COC(=O)CCC(=O)NCc1cccnc1N1CCc2ccccc2C1 ; value = 58.5

// field: INHIBITION; key: CC(C)CN1C(=O)CCC12CCC(NC(=O)NCc1cccnc1)CC2 (stereo not drawn) ; value = -167

// field: INHIBITION; key: O=C(NCCNc1ccc(Br)cn1)c1ccc(O)cc1 ; value = -20.5

// field: INHIBITION; key: CCOCCCNC(=O)c1cc(C)nc(N2CCCCC2)n1 ; value = -133

// field: INHIBITION; key: Cc1cccc(C)c1OC1CCN(Cc2ccn(C)c(=O)c2)CC1 ; value = -30.1

// field: INHIBITION; key: COc1ccccc1Cc1nnc(SCCS(C)(=O)=O)o1 ; value = -75.9

// field: INHIBITION; key: Cc1c[nH]c(CN2CCOC(c3ccc(Cl)cc3)C2)c(C)c1=O (stereo not drawn) ; value = -11.4

// field: INHIBITION; key: COc1ccc(CCC2CCCCN2)cc1OC (stereo not drawn) ; value = -112

// field: INHIBITION; key: COc1ccc(CCN2CCCC(CN(C)Cc3ccc(C)o3)C2)cc1 (stereo not drawn) ; value = -45.9

// field: INHIBITION; key: Cc1cc(C)n(CCCNc2ncnc3c2NC(=O)CN3)n1 ; value = -40.1

// field: INHIBITION; key: CN1CCC(c2cccc(Cc3ccccc3)n2)CC1 ; value = 3.76

// field: INHIBITION; key: O=C(NCCn1cccc1)C(c1ccccc1)N1CCCC1 (stereo not drawn) ; value = 54.4

// field: INHIBITION; key: O=C(c1ccc2[nH]ccc2c1)N1Cc2nc(CN3CCCCC3)oc2C1 ; value = -72.8

// field: INHIBITION; key: Cc1cc(CN(C)CC2CCCN(CCc3ccc(Cl)cc3)C2)[nH]n1 (stereo not drawn) ; value = -65.3

// field: INHIBITION; key: CC(C)[C@@H](N)C(=O)NCc1cccnc1N1CCc2ccccc2C1 ; value = 29

// field: INHIBITION; key: CCn1cc(-c2cc(-c3cc(CN(C)C)cs3)nc(N)c2C#N)c(C)n1 ; value = 60.3

// field: INHIBITION; key: Cc1cccc(CN(Cc2ccccn2)S(=O)(=O)N(C)C)c1 ; value = -25.3

// field: INHIBITION; key: Cc1noc(CNC(=O)C2CSCCC(=O)N2)n1 (stereo not drawn) ; value = -164

// field: INHIBITION; key: NC(=O)CCC1CCCN(Cc2cnc(N3CCCCC3)nc2)C1 (stereo not drawn) ; value = -84.4

// field: INHIBITION; key: CC(C)CC(C)NC1CCN(c2ccc(-c3cscn3)cc2)CC1 (stereo not drawn) ; value = -115

// field: INHIBITION; key: COc1ccc(NC(=O)c2cccc(CN3CCCC3C)c2)cc1OC (stereo not drawn) ; value = 51.1

// field: INHIBITION; key: O=c1cc(-c2cc(O)cc(CCC3CCCCN3)c2)cc[nH]1 (stereo not drawn) ; value = 0.568

// field: INHIBITION; key: COCC(=O)NCc1cnc(C)nc1-c1cn(C)c2ccc(OC)cc12 ; value = -88.7

// field: INHIBITION; key: CN(CC(=O)NCc1cccnc1N1CCCCC1)C(=O)c1cccs1 ; value = -48.6

// field: INHIBITION; key: COCc1nn(CC2CC2)c2c1CN(Cc1cccs1)CC2 ; value = 50

// field: INHIBITION; key: O=c1[nH]ccc2cc(-c3cc(O)cc(CCC4CCCCN4)c3)ccc12 (stereo not drawn) ; value = -57.5

// field: INHIBITION; key: CC1CCCN1Cc1cccc(C(=O)Nc2ccc3c(c2)CCC3=O)c1 (stereo not drawn) ; value = 30.1

// field: INHIBITION; key: CN(C)c1ccc(C(=O)NCc2cccnc2-n2cncn2)cc1F ; value = -20.3

// field: INHIBITION; key: Cc1nn(C)c(C)c1-c1cc(-c2cc(CC(=O)O)cs2)nc(N)c1C#N ; value = -66.5
